Data origin: the supplement of paper PMC11061612

- System: TGBC1TKB (Biliary Tract Carcinoma)
- measurement_protocol: combination Emax (second highest fraction inhibited in the dose matrix, 72 h); higher = more inhibition; extreme values may be limits of the assay
value_type: combination Emax

>  <molecule>
CCN(CCO)CCCOc1ccc2c(Nc3cc(CC(=O)Nc4cccc(F)c4)[nH]n3)ncnc2c1 [AZD2811] + O=C(c1cc(Cc2n[nH]c(=O)c3ccccc23)ccc1F)N1CCN(C(=O)C2CC2)CC1 [Olaparib] (first compound max 1 µM, 7x7, partner max 10 µM)

>  <reported_measurement>
0.0912

$$$$
>  <molecule>
COc1nnc2ccc(N3CCC(c4ccc(OCCN5CCN(C)C(=O)[C@H]5C)cc4)CC3)nn12 [AZD5153] + Cc1c2c(nn1C)CSCc1cc(n(C)n1)CSc1cc(c3ccccc3c1)OCCCc1c(C(=O)O)n(C)c3c-2c(Cl)ccc13 [AZD5991] (first compound max 1 µM, 7x7, partner max 1 µM)

>  <reported_measurement>
0.289

$$$$
>  <molecule>
CC(=O)c1c(C)c2cnc(Nc3ccc(N4CCNCC4)cn3)nc2n(C2CCCC2)c1=O [Palbociclib] + Cc1c2c(nn1C)CSCc1cc(n(C)n1)CSc1cc(c3ccccc3c1)OCCCc1c(C(=O)O)n(C)c3c-2c(Cl)ccc13 [AZD5991] (first compound max 10 µM, 7x7, partner max 1 µM)

>  <reported_measurement>
0.164

$$$$
>  <molecule>
NC1(C(=O)N[C@@H](CCO)c2ccc(Cl)cc2)CCN(c2ncnc3[nH]ccc23)CC1 [Capivasertib] + COc1nnc2ccc(N3CCC(c4ccc(OCCN5CCN(C)C(=O)[C@H]5C)cc4)CC3)nn12 [AZD5153] (first compound max 10 µM, 7x7, partner max 1 µM)

>  <reported_measurement>
0.39

$$$$
>  <molecule>
CS(=O)(=O)CCNCc1ccc(-c2ccc3ncnc(Nc4ccc(OCc5cccc(F)c5)c(Cl)c4)c3c2)o1 [Lapatinib] + NC1(c2ccc(-c3nc4ccn5c(=O)[nH]nc5c4cc3-c3ccccc3)cc2)CCC1 [MK-2206] (first compound max 10 µM, 7x7, partner max 10 µM)

>  <reported_measurement>
0.623

$$$$
>  <molecule>
O=C(c1cc(Cc2n[nH]c(=O)c3ccccc23)ccc1F)N1CCN(C(=O)C2CC2)CC1 [Olaparib] + CN(CC[C@H](CSC1=CC=CC=C1)NC2=C(C=C(C=C2)S(=O)(=O)NC(=O)C3=CC=C(C=C3)N4CCC(CC4)[C@H](C5=CC=CC=C5C6=CC=C(C=C6)Cl)O)S(=O)(=O)C(F)(F)F)CCO [AZD4320] (first compound max 10 µM, 7x7, partner max 1 µM)

>  <reported_measurement>
0.366

$$$$
>  <molecule>
CC1(C)CCC(CN2CCN(c3ccc(C(=O)NS(=O)(=O)c4ccc(NCC5CCOCC5)c([N+](=O)[O-])c4)c(Oc4cnc5[nH]ccc5c4)c3)CC2)=C(c2ccc(Cl)cc2)C1 [Venetoclax] + CN(C)CCCOc1ccc(-c2ccc3ncc4c(c3c2)n(C2CCOCC2)c(=O)n4C)cn1 [AZD0156] (first compound max 1 µM, 7x7, partner max 1 µM)

>  <reported_measurement>
0.244

$$$$

----------
- Tested on: TGBC1TKB (Biliary Tract Carcinoma)
- measurement_protocol: combination Emax (second highest fraction inhibited in the dose matrix, 72 h); higher = more inhibition; extreme values may be limits of the assay
Reported combination Emax values are given for each entry in this list.

>  <compound>
CN(CCO)CC[C@H](CSc1ccccc1)Nc1ccc(S(=O)(=O)NC(=O)c2ccc(N3CCC([C@@H](O)c4ccccc4-c4ccc(Cl)cc4)CC3)cc2)cc1S(=O)(=O)C(F)(F)F [AZD4320] + CS(=O)(=O)CCNCc1ccc(-c2ccc3ncnc(Nc4ccc(OCc5cccc(F)c5)c(Cl)c4)c3c2)o1 [Lapatinib] (first compound max 1 µM, 7x7, partner max 10 µM)

>  <assayed_system>
TGBC1TKB (Biliary Tract Carcinoma)

>  <combination Emax>
0.58

$$$$
>  <compound>
NC1(C(=O)N[C@@H](CCO)c2ccc(Cl)cc2)CCN(c2ncnc3[nH]ccc23)CC1 [Capivasertib] + C[C@@H]1COCCN1C2=NC(=NC(=C2)C3(CC3)[S@](=N)(=O)C)C4=C5C=CNC5=NC=C4 [AZD6738] (first compound max 10 µM, 7x7, partner max 10 µM)

>  <assayed_system>
TGBC1TKB (Biliary Tract Carcinoma)

>  <combination Emax>
0.559

$$$$
